- Test system: Spn1509 S. pneumoniae ermB positive mefA negative
- Assay Details: broth dilution MIC, S. pneumoniae Spn1509
- Type: cell-based
- Reported Conditions: Streptococcus pneumoniae; Spn1509 S. pneumoniae ermB positive mefA negative; read-out: MIC
Result Type: MIC

Molecule | Observed Measurement
CC[C@H]1OC(=O)C(C)(F)C(=O)[C@H](C)[C@@H](O[C@@H]2OC(C)CC(N(C)C)C2O)[C@](C)(OC)C[C@@H](C)CN(C)[C@H](C)[C@H]2N(CCCCn3cc(-c4cccc(N)c4)nn3)C(=O)O[C@]12C (some centres unmarked) | 4 µg/mL

Given the molecule CC[C@H]1OC(=O)C(C)(F)C(=O)[C@@H](C)[C@@H](O[C@@H]2OC(C)CC(N(C)C)C2O)[C@](C)(OC)C[C@@H](C)CN[C@H](C)[C@H]2N(CCCCn3cc(-c4nccs4)nn3)C(=O)O[C@]12C (some centres unmarked) , what is its reported MIC?
8 to 16 µg/mL
